- Test system: PthA4AT (7.5-repeat TAL effector) (Xanthomonas citri ssp. citri variant AT)
- TEST_DETAILS: PBM
- CONDITION_LABEL: not stated; PBM performed as in Godoy et al. 2011
Would you kindly list binding signal for each of these substances?
Answers are plain numbers, in E-score.

Examples with their reported binding signal follow.
SUBSTANCE: PBM probes with TATTACCTC
REPORTED: 0.466
--
SUBSTANCE: PBM probes with TTATTACCT
REPORTED: 0.476
--
SUBSTANCE: PBM probes with TTATCACCT
REPORTED: 0.464
--
SUBSTANCE: PBM probes with TATTACCTT
REPORTED: 0.481
--
SUBSTANCE: PBM probes with TATCACCTT
REPORTED: 0.476

Value sought for every listed substance: binding signal.
1. PBM probes with TATCGCCTT
2. PBM probes with TATAACCTT
3. PBM probes with ATTATTACC
4. PBM probes with ATATCACCT
5. PBM probes with TATTACCCC
6. PBM probes with TTATTACCC

OUT:
[0.454, 0.462, 0.456, 0.46, 0.458, 0.46]
